Item-by-item account of AtT-20 cell viability (PrestoBlue assay) % of control (DMSO) at 25 μM Mean (SD)
Tested on: AtT-20 cells
Experiment: Cytotoxicity towards AtT-20 cells (PrestoBlue viability assay)
Conditions: 25 μM, 24-hour exposure

**Q:** Entry under review: Cc1ccc(NC(=O)Cn2ccccc2=O)c(OCc2ccccc2)c1 . Reported AtT-20 cell viability (PrestoBlue assay) % of control (DMSO) at 25 μM Mean (SD)?
**A:** 95.98 (15.33) %

**Q:** Entry under review: O=C(Nc1ccc(O)cc1)c1cc(I)ccc1O . Reported AtT-20 cell viability (PrestoBlue assay) % of control (DMSO) at 25 μM Mean (SD)?
**A:** 106.7 (20.87) %

====

Item-by-item account of AtT-20 cell viability (PrestoBlue assay) % of control (DMSO) at 25 μM Mean (SD)
Tested on: AtT-20 cells
Assay: Cytotoxicity towards AtT-20 cells (PrestoBlue viability assay)
Details: 25 μM, 24-hour exposure

Look over these answered cases.
O=C(NCc1cccc(OCc2ccccn2)c1)c1csc(Br)c1
98.93 (14.69) %
O=C(Nc1ccc(Cl)cc1)c1cc(I)cc(I)c1O
58.81 (34.11) %

# ---- query molecule ----
**Q:** Entry under review: O=C(Nc1ccccc1)c1ccccc1O [Salicylanilide, reference compound] . Reported AtT-20 cell viability (PrestoBlue assay) % of control (DMSO) at 25 μM Mean (SD)?
**A:** 105.4 (14.77) %
